# ASSAY EXPLANATION: Fraction unbound in human occipital cortex at 1 uM after 6 hrs by equilibrium dialysis method
MEASURED ENDPOINT: fraction unbound at 6 h, 1 µM
Answer as a number with no unit attached.

stdin: Specify fraction unbound at 6 h, 1 µM for `CN1[C@@H]2CC[C@H]1C[C@@H](OC(=O)c1c[nH]c3ccccc13)C2` and stop.
stdout: 0.053

stdin: Report fraction unbound at 6 h, 1 µM, nothing else, for this compound: `CC(C)C[C@H]1C(=O)N2CCC[C@H]2[C@]2(O)O[C@](NC(=O)[C@@H]3C=C4c5cccc6[nH]c(Br)c(c56)C[C@H]4N(C)C3)(C(C)C)C(=O)N12`
stdout: 0.002

stdin: Output fraction unbound at 6 h, 1 µM of `CN[C@H]1CC[C@@H](c2ccc(Cl)c(Cl)c2)c2ccccc21`
stdout: 0.001

stdin: Supply reported fraction unbound at 6 h, 1 µM belonging to this compound: CN1Cc2c(N)cccc2C(c2ccccc2)C1 (stereo not drawn)
stdout: 0.071

stdin: Please give the documented fraction unbound at 6 h, 1 µM of `O=C(O[C@H]1CN2CCC1CC2)N1CCc2ccccc2[C@@H]1c1ccccc1`
stdout: 0.017

stdin: Give the value of fraction unbound at 6 h, 1 µM reported for the following: CCCCN1CCCCC1C(=O)Nc1c(C)cccc1C (stereo not drawn)
stdout: 0.232

stdin: Supply recorded fraction unbound at 6 h, 1 µM for `NC12CC3CC(CC(C3)C1)C2` here.
stdout: 0.171

stdin: For COC(=O)C1=C(C)NC(C)=C(C(=O)OCCN(C)Cc2ccccc2)C1c1cccc([N+](=O)[O-])c1 (stereo not drawn) , write its fraction unbound at 6 h, 1 µM.
stdout: 0.006
